- Tgt: recombinant human BACE1 (rhBACE1) (human, UniProt P56817 22-457, limits assumed)
- Sequence (P56817 22-457 limits assumed): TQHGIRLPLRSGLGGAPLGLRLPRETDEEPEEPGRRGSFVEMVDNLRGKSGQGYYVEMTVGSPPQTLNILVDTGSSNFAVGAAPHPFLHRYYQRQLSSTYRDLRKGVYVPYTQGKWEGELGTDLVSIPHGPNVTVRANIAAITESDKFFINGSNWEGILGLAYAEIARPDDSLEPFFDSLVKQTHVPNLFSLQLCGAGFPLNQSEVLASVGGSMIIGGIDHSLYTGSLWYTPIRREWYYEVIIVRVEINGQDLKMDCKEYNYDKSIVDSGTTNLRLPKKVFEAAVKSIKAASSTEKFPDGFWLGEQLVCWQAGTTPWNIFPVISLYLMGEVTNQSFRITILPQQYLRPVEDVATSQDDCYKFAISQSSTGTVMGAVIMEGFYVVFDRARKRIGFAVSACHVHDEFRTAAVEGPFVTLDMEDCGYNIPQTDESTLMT
- Assay explanation: FP competition binding; 12 nM rhBACE1, competitor probe 5-TAMRA-BACE020
Positions of bridges follow the written chain, without caps; N, C: chain ends. Non-standard residues stand in square brackets, D forms with d. Cit = NC(=O)NCCC[C@H](N)C(=O)O; Orn = NCCC[C@H](N)C(=O)O
Property name: IC50 (nM)
Give the number; nM is assumed, so skip it.

Here's what some known entries look like.
Ac-ESMYC[Orn]LLGIGCG-NH2 (disulfide 5-12 (inferred), also called BACE030 with Arg to ornithine) [BACE059]; 512
Ac-NAESMYCRLLGIGCG-NH2 (disulfide 7-14 (inferred), also called BACE020 Glu2 to Ala) [BACE043]; 41

Moving on to another binder below.
Query block: If you can, please state the reported IC50 value of Ac-ESMYC[Cit]LLGIGCG-NH2 (disulfide 5-12 (inferred), also called BACE030 with Arg to citrulline) [BACE060] .
Result block: 2300
